# Assay target: T1, UbcH5B S22R C85K–Ub (UniProt P62837 1-147; P0CG47 1-76, S22R | C85K, conjugated to Ub via an isopeptide bond (non-hydrolyzable amide linkage) | conjugated to UbcH5B via an isopeptide bond)
# T1 construct: E2 ubiquitin-conjugating enzyme UbcH5B; ubiquitin (Ub); also called UbcH5B–Ub; E2–Ub; source: expressed, generated and purified as described previously [7]
# Protocol notes: SPR; GST-Cbl variants coupled to CM-5 chips; UbcH5B–Ub as analyte at 0–120 μM; Biacore T200
# Assay setup: both partners purified
Recorded pKd by entry
Just so you know, pKd here is -log10 of the concentration in molar units; reply with that number alone.

Illustrative cases are given below, each with its answer.
His-GST-N-Cbl Y368F (residues 47-435) (domain or fragment, UniProt P22681 47-435, looked up, Cbl (c-Cbl), N-terminal fragment with TKBD, linker helix region and RING domain (N-Cbl), residues 47-435; Tag not cleaved for SPR; not shown: His, N-terminal, kept; GST, N-terminal, kept) PPGTVDKKMVEKCWKLMDKVVRLCQNPKLALKNSPPYILDLLPDTYQHLRTILSRYEGKMETLGENEYFRVFMENLMKKTKQTISLFKEGKERMYEENSQPRRNLTKLSLIFSHMLAELKGIFPSGLFQGDTFRITKADAAEFWRKAFGEKTIVPWKSFRQALHEVHPISSGLEAMALKSTIDLTCNDYISVFEFDIFTRLFQPWSSLLRNWNSLAVTHPGYMAFLTYDEVKARLQKFIHKPGSYIFRLSCTRLGQWAIGYVTADGNILQTIPHNKPLFQALIDGFREGFYLFPDGRNQNPDLTGLCEPTPQDHIKVTQEQFELYCEMGSTFQLCKICAENDKDVKIEPCGHLMCTSCLTSWQESEGQGCPFCRCEIKGTEPIVVDPFD
4.31
His-GST-N-Cbl wild-type (residues 47-435) (domain or fragment, UniProt P22681 47-435, looked up, Cbl (c-Cbl), N-terminal fragment with TKBD, linker helix region and RING domain (N-Cbl), residues 47-435; Modified pGEX4T1 with N-terminal His-GST tag followed by a thrombin or TEV cleavage site; tag not cleaved for SPR; also called WT; wild-type N-Cbl; not shown: His, N-terminal, kept; GST, N-terminal, kept) PPGTVDKKMVEKCWKLMDKVVRLCQNPKLALKNSPPYILDLLPDTYQHLRTILSRYEGKMETLGENEYFRVFMENLMKKTKQTISLFKEGKERMYEENSQPRRNLTKLSLIFSHMLAELKGIFPSGLFQGDTFRITKADAAEFWRKAFGEKTIVPWKSFRQALHEVHPISSGLEAMALKSTIDLTCNDYISVFEFDIFTRLFQPWSSLLRNWNSLAVTHPGYMAFLTYDEVKARLQKFIHKPGSYIFRLSCTRLGQWAIGYVTADGNILQTIPHNKPLFQALIDGFREGFYLFPDGRNQNPDLTGLCEPTPQDHIKVTQEQYELYCEMGSTFQLCKICAENDKDVKIEPCGHLMCTSCLTSWQESEGQGCPFCRCEIKGTEPIVVDPFD
4.08

Turning to the following binder.
binder His-GST-N-Cbl Y371E (residues 47-435) (domain or fragment, UniProt P22681 47-435, looked up, Cbl (c-Cbl), N-terminal fragment with TKBD, linker helix region and RING domain (N-Cbl), residues 47-435; Tag not cleaved for SPR; not shown: His, N-terminal, kept; GST, N-terminal, kept) PPGTVDKKMVEKCWKLMDKVVRLCQNPKLALKNSPPYILDLLPDTYQHLRTILSRYEGKMETLGENEYFRVFMENLMKKTKQTISLFKEGKERMYEENSQPRRNLTKLSLIFSHMLAELKGIFPSGLFQGDTFRITKADAAEFWRKAFGEKTIVPWKSFRQALHEVHPISSGLEAMALKSTIDLTCNDYISVFEFDIFTRLFQPWSSLLRNWNSLAVTHPGYMAFLTYDEVKARLQKFIHKPGSYIFRLSCTRLGQWAIGYVTADGNILQTIPHNKPLFQALIDGFREGFYLFPDGRNQNPDLTGLCEPTPQDHIKVTQEQYELECEMGSTFQLCKICAENDKDVKIEPCGHLMCTSCLTSWQESEGQGCPFCRCEIKGTEPIVVDPFD , pKd observed: 5.05

Data origin: paper PMC5015263
